Reference for the values: patent US10604508B2

- System: SR
- ASSAY_TEXT: MTS anti-proliferation assay, SR
- Type: cell-based
- EXPERIMENTAL_CONDITIONS: human lymphoma cell line, 48 hours
- Procedure: […] MTS assays are commercially available and include the Promega CellTiter 96® Aqueous Non-Radioactive Cell Proliferation Assay. […] Then absorbance of the samples was read at 490 nm. The anti-proliferation activity level was calculated based on absorbance of the test compounds against that of the untreated control group. […]
For each record, write down the corresponding pEC50.
Numbers only, as −log10 of the molar value.

Cc1cnc(-c2ccc(-c3ccc(NC(=O)Nc4c(F)ccc(F)c4Cl)cc3F)c3c2C(=O)NC3)[nH]1 [Compound 18]: 7.70

Would you mind listing pEC50 for each of the following molecules?
1. Cc1cnc(-c2ccc(-c3ccc(NC(=O)Nc4c(F)c(F)cc(F)c4F)cc3F)c3c2C(=O)NC3)[nH]1 [Compound 20]
2. Cc1cnc(-c2ccc(-c3ccc(NC(=O)Nc4c(F)cccc4F)cc3F)c3c2C(=O)NC3)[nH]1 [Compound 3]
3. Cc1cnc(-c2ccc(-c3ccc(NC(=O)Nc4c(F)ccc(Cl)c4F)cc3F)c3c2C(=O)NC3)[nH]1 [Compound 17]

Result:
[7.77, 7.00, 7.60]

----------
- Test system: SR
- ASSAY_TEXT: MTS anti-proliferation assay, SR
- Format: cell-based
- EXPERIMENTAL_CONDITIONS: human lymphoma cell line, 48 hours
READOUT_KIND: EC50 (nM)
One number for each entry, in nM.

Example cases with answers are listed next.
Cc1cnc(-c2ccc(-c3ccc(NC(=O)Nc4ccc(C#N)c(F)c4)cc3F)c3c2C(=O)NC3)[nH]1: 150
Cc1cnc(-c2ccc(-c3ccc(NC(=O)Nc4c(F)ccc(F)c4F)cc3F)c3c2C(=O)NC3)[nH]1: 20
Cc1cnc(-c2ccc(-c3ccc(NC(=O)Nc4c(F)cc(F)cc4F)cc3F)c3c2C(=O)NC3)[nH]1: 15

Now for the compound whose EC50 we want.
EC50 reading for `Cc1cnc(-c2ccc(-c3ccc(NC(=O)Nc4c(F)c(F)c(F)c(F)c4F)cc3F)c3c2C(=O)NC3)[nH]1` : 18

----------
- Tested on: MV4-11
- ASSAY_TEXT: MTS anti-proliferation assay, MV4-11
- Format: cell-based
- EXPERIMENTAL_CONDITIONS: human leukemia cell line, 48 hours
READOUT_KIND: EC50 (nM)
Answers are plain numbers, in nM.

Cc1cnc(-c2ccc(-c3ccc(NC(=O)Nc4c(F)cc(F)cc4F)cc3F)c3c2C(=O)NC3)[nH]1 [Compound 7]: 2

Now for the compound whose EC50 we want.
EC50 reading for Cc1cnc(-c2ccc(-c3ccc(NC(=O)Nc4c(F)ccc(Cl)c4F)cc3F)c3c2C(=O)NC3)[nH]1 [Compound 17] : 4

----------
- Tested on: SR
- ASSAY_TEXT: MTS anti-proliferation assay, SR
- Type: cell-based
- EXPERIMENTAL_CONDITIONS: human lymphoma cell line, 48 hours
For each record, write down the corresponding EC50.
A bare number is not enough; add the unit after it.

Example cases with answers are listed next.
Cc1cnc(-c2ccc(-c3ccc(NC(=O)Nc4ccc(F)c(F)c4)cc3F)c3c2C(=O)NC3)[nH]1: 18 nM
Cc1cnc(-c2ccc(-c3ccc(NC(=O)Nc4c(F)cc(Cl)cc4F)cc3F)c3c2C(=O)NC3)[nH]1: 20 nM

Now for the compound whose EC50 we want.
EC50 reading for `Cc1cnc(-c2ccc(-c3ccc(NC(=O)Nc4c(F)cccc4Cl)cc3F)c3c2C(=O)NC3)[nH]1` : 30 nM
